# Test system: IMC-1 (IL-2 20 ng/mL)
# runDescription: percent inhibition of viability; higher = more inhibition;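 also: normalised to DMSO-only wells as negative and benzethonium chloride as positive control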
# details: 72 h; 1 nM
observable: percent inhibition of viability (%)

C=C(c1ccc(C(=O)O)cc1)c1cc2c(cc1C)C(C)(C)CCC2(C)C [Bexarotene] (max concentration tested 10000 nM) | -7.44
Nc1nc(Nc2ccc3c(c2)CC[C@@H](N2CCCC2)CC3)nn1-c1cc2c(nn1)-c1ccccc1CCC2 [BGB324] (max concentration tested 10000 nM) | -1.43
NC(=S)N/N=C/c1ncccc1N [Triapine] (max concentration tested 10000 nM) | -5.06
Clc1ccc(Nc2nnc(Cc3ccncc3)c3ccccc23)cc1 [Vatalanib] (max concentration tested 10000 nM) | -2.63

----------
# Tested on: NK-YS (IL-2 2.5 ng/mL)
# runDescription: percent inhibition of viability; higher = more inhibition
# details: 72 h; 0.1 nM
observable: percent inhibition of viability (%)

O=C1NC(=O)[C@@H](c2cn3c4c(cccc24)CCC3)[C@@H]1c1c[nH]c2ccccc12 [Tivantinib] (max concentration tested 1000 nM) | 0.78
Cc1ccc(C(=O)Nc2ccc(CN3CCN(C)CC3)c(C(F)(F)F)c2)cc1C#Cc1cnc2cccnn12 [Ponatinib] (max concentration tested 1000 nM) | -8.44
Cn1c(=O)n(-c2ccc(C(C)(C)C#N)cc2)c2c3cc(-c4cnc5ccccc5c4)ccc3ncc21 [Dactolisib] (max concentration tested 1000 nM) | 0.2
CCc1cnn2c(NCc3ccc[n+]([O-])c3)cc(N3CCCC[C@H]3CCO)nc12 [Dinaciclib] (max concentration tested 1000 nM) | -6.76
CC(C)N(C[C@H]1O[C@@H](n2cnc3c(N)ncnc32)[C@H](O)[C@@H]1O)[C@H]1C[C@@H](CCc2nc3cc(C(C)(C)C)ccc3[nH]2)C1 [EPZ-5676] (max concentration tested 1000 nM) | -3.52

----------
# Tested on: SNK-6 (IL-2 2.5 ng/mL)
# runDescription: percent inhibition of viability; higher = more inhibition
# details: 72 h; 100 nM
observable: percent inhibition of viability (%)

C[C@]12C=CC(=O)C=C1CC[C@@H]1[C@@H]2[C@@H](O)C[C@@]2(C)[C@H]1CC[C@]2(O)C(=O)CO [Prednisolone] (max concentration tested 10000 nM) | 7.45
CNC(=O)c1ccccc1Sc1ccc2c(/C=C/c3ccccn3)n[nH]c2c1 [Axitinib] (max concentration tested 10000 nM) | -11.7
O=C(O)CC[C@H]1CC[C@@](c2cc(F)ccc2F)(S(=O)(=O)c2ccc(Cl)cc2)CC1 [MK-0752] (max concentration tested 1000 nM) | 21.6
COc1cc(OC)c(/C=C/S(=O)(=O)Cc2ccc(OC)c(NCC(=O)O)c2)c(OC)c1 [Rigosertib] (max concentration tested 10000 nM) | 76.5
N#CC1(c2ccc(NC(=O)c3cccnc3NCc3ccncc3)cc2)CCCC1 [Apatinib] (max concentration tested 10000 nM) | 7.35
C[C@@H]1C[C@H]2[C@@H]3CCC4=CC(=O)C=C[C@]4(C)[C@@]3(F)[C@@H](O)C[C@]2(C)[C@@]1(O)C(=O)CO [Dexamethasone] (max concentration tested 10000 nM) | -4.28

----------
Readings of percent inhibition of viability for the listed molecules
# Test system: SNK-6 (IL-2 2.5 ng/mL)
# runDescription: percent inhibition of viability; higher = more inhibition
# details: 72 h; 10 nM
observable: percent inhibition of viability (%)

CC/C(=C(\c1ccccc1)c1ccc(OCCN(C)C)cc1)c1ccccc1 [Tamoxifen] (max concentration tested 10000 nM) | -17.5
CN(C)CCN1C(=O)c2cccc3cc(N)cc(c23)C1=O [Amonafide] (max concentration tested 10000 nM) | 8.85
CCC1(c2ccc(N)cc2)CCC(=O)NC1=O (stereo unspecified) [Aminoglutethimide] (max concentration tested 10000 nM) | 17.4
CCn1c(C(=O)N(C2CC2)C2CC2)cc2c3c(ncn3C)c(Nc3cc(C)n(C)n3)nc21 (max concentration tested 10000 nM) | 22.8
Cc1c(CN2CCN(C(=O)[C@H](C)O)CC2)sc2c(N3CCOCC3)nc(-c3cnc(N)nc3)nc12 [Apitolisib] (max concentration tested 10000 nM) | 9.78
O=C1NC(=O)[C@@H](c2cn3c4c(cccc24)CCC3)[C@@H]1c1c[nH]c2ccccc12 [Tivantinib] (max concentration tested 1000 nM) | 0.91
